Reference source: patent US5462861A

system: β-D-Glucosidase; experiment: High pressure experiments, β-D-glucosidase; assay type: biochemical, Almonds; details: at 3 atmospheres pressure (value after the > sign); minus = inhibition
Property measured: degree of enhancement observed
No unit in the answer, only the number.

So, `[Ne]` ? Its degree of enhancement observed was -12.5

So, `[Xe]` ? Its degree of enhancement observed was -15.7

So, N#N [N2, nitrogen, reference compound] ? Its degree of enhancement observed was -5.0

So, `[Ar]` ? Its degree of enhancement observed was -13.2

So, `[Kr]` ? Its degree of enhancement observed was -6.2

----------
molecular target: UniProt O75390; test: Citrate synthetase complex reaction under gas; assay type: biochemical; details: 25° C.
Property measured: effect on citrate synthetase complex reaction

So, [Xe] [Xe, xenon] ? Its effect on citrate synthetase complex reaction was 0

So, [Kr] [Kr, krypton] ? Its effect on citrate synthetase complex reaction was +6

So, N#N [N2, nitrogen, reference compound] ? Its effect on citrate synthetase complex reaction was -25

So, [Ar] [Ar, argon] ? Its effect on citrate synthetase complex reaction was -10

So, [Ne] [Ne, neon] ? Its effect on citrate synthetase complex reaction was +9

----------
target: Glucose oxidase (Aspergillus niger, UniProt P13006); assay: Glucose oxidase activity under gas; type: biochemical; details: minus = inhibition; dependent upon temperature and substrate concentration
Sequence (P13006 17-605): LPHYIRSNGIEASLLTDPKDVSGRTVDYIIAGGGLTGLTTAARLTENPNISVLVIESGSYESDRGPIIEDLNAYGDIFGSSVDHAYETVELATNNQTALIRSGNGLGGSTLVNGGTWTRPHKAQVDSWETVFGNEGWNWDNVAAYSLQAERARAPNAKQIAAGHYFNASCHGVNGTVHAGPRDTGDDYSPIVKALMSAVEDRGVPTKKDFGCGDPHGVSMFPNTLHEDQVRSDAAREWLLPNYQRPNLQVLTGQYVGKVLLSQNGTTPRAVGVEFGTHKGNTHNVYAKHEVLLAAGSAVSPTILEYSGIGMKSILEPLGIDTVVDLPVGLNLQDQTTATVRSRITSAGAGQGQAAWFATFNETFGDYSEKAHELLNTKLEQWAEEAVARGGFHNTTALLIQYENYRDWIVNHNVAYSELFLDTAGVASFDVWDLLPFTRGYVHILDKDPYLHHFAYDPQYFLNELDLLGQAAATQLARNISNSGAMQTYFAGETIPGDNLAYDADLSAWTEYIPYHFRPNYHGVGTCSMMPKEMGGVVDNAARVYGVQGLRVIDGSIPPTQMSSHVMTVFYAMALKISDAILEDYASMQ
I'd be grateful if you could share measured effect for these entries.

So, `[Kr]` ? Its effect was -92.7%

So, `[Ar]` ? Its effect was -85.8%

So, `[Ne]` ? Its effect was -61.7%

So, `[Xe]` ? Its effect was -91.6%

----------
I'd be grateful if you could share measured % inhibition of gases relative to 1 atmosphere of air for these entries.
system: Tyrosinase; test: High pressure experiments, tyrosinase; assay type: biochemical, Mushroom; settings: 2 atm experiment, value before the slash (not pressurized)
Could you give me the number in %? Just the number is fine.

Noted % inhibition of gases relative to 1 atmosphere of air for [Kr] [Kr, krypton] , tested on Tyrosinase: -84.5

Noted % inhibition of gases relative to 1 atmosphere of air for [Ne] [Ne, neon] , tested on Tyrosinase: -69.0

Noted % inhibition of gases relative to 1 atmosphere of air for [Ar] [Ar, argon] , tested on Tyrosinase: -76.9

Noted % inhibition of gases relative to 1 atmosphere of air for [Xe] [Xe, xenon] , tested on Tyrosinase: -76.0

Noted % inhibition of gases relative to 1 atmosphere of air for N#N [N2, nitrogen, reference compound] , tested on Tyrosinase: -71.2

----------
I'd be grateful if you could share measured effect on phenylalanine ammonia lyase for these entries.
Test system: phenylalanine ammonia lyase
Assay: Phenylalanine ammonia lyase activity under gas
Type: biochemical
Details: suboptimal enzyme concen.; second value column, head not printed
Method: Solution preparation: Optimized w/v solutions are prepared by diluting the enzyme (units/ml) and the substrate (μg/ml) in appropriate buffer (optimized pH and molarity for enzymes). The solutions are used for gas experiments at once to avoid loss of activity. […] Preparation of samples: Cuvets are filled with 2 ml of substrate solution by means of a gas-tight syringe. […] The amount of gas used has been measured sufficient to saturate the solution required. […]
No unit in the answer, only the number.

So, N#N [N2, nitrogen, reference compound] ? Its effect on phenylalanine ammonia lyase was 0

So, `[Ne]` ? Its effect on phenylalanine ammonia lyase was 0

----------
I'd be grateful if you could share measured Maximum observed enhancement for these entries.
test system: Acetyl S-CoA synthetase; assay: Acetyl S-CoA synthetase activity under gas (coupled sequence or isolated reaction); type: biochemical; settings: coupled complex reaction sequence including hydrolytic enzymes; depending upon temperature

So, `[Kr]` ? Its Maximum observed enhancement was +16.1%

So, `[Ar]` ? Its Maximum observed enhancement was +67.7%

So, `[Ne]` ? Its Maximum observed enhancement was +2.3%

So, N#N [N2, nitrogen, reference compound] ? Its Maximum observed enhancement was +31.2%

So, `[Xe]` ? Its Maximum observed enhancement was +18.3%

----------
test system: Acetyl S-CoA synthetase; assay: Acetyl S-CoA synthetase activity under gas (coupled sequence or isolated reaction); format: biochemical; settings: isolated reaction; depending upon temperature
I'd be grateful if you could share measured maximum observed inhibition for these entries.
Could you give me the number in %? Just the number is fine.

So, [Ar] [Ar, argon] ? Its maximum observed inhibition was -27.6

So, N#N [N2, nitrogen, reference compound] ? Its maximum observed inhibition was -118.7

So, [Kr] [Kr, krypton] ? Its maximum observed inhibition was -52.6

So, [Xe] [Xe, xenon] ? Its maximum observed inhibition was -39.5

----------
system: Tyrosinase; assay: Tyrosinase-L-tyrosine reaction, solution saturated with gas; assay type: biochemical, Mushroom; settings: 25° C.
Property measured: effect on tyrosinase-L-tyrosine reaction

Chemical smiles	Observed value
[Xe]	inhibitory effect
[Ne]	inhibitory effect
[Kr]	inhibitory effect

----------
I'd be grateful if you could share measured effect on citrate synthetase complex reaction for these entries.
Target: citrate synthetase (Homo sapiens)
Sequence (O75390 28-466): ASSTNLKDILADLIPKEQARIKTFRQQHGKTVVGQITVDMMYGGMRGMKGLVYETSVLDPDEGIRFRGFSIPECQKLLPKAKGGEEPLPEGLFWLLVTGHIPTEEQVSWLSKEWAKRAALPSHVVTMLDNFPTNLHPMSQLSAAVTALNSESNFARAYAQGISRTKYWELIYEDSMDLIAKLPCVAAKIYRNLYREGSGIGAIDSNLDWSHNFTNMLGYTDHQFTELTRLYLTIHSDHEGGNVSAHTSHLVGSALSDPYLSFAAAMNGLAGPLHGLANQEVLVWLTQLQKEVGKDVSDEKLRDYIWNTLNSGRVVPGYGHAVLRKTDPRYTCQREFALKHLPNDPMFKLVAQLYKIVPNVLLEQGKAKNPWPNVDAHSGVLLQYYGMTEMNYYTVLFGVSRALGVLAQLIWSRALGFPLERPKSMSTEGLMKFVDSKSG
Assay: Citrate synthetase complex reaction under gas
Assay type: biochemical
Conditions: 10° C.

So, N#N [N2, nitrogen, reference compound] ? Its effect on citrate synthetase complex reaction was -6

So, [Kr] [Kr, krypton] ? Its effect on citrate synthetase complex reaction was +37

So, [Ne] [Ne, neon] ? Its effect on citrate synthetase complex reaction was +11

So, [Xe] [Xe, xenon] ? Its effect on citrate synthetase complex reaction was +18

So, [Ar] [Ar, argon] ? Its effect on citrate synthetase complex reaction was +25

----------
system: phenylalanine ammonia lyase; assay: Phenylalanine ammonia lyase activity under gas; type: biochemical; conditions: suboptimal enzyme concen.; first value column, head not printed
I'd be grateful if you could share measured effect on phenylalanine ammonia lyase for these entries.
No unit in the answer, only the number.

So, [Ar] [Ar, argon] ? Its effect on phenylalanine ammonia lyase was -1

So, N#N [N2, nitrogen, reference compound] ? Its effect on phenylalanine ammonia lyase was 0

----------
target: Gamma-glutamyl transpeptidase (Homo sapiens); test: Gamma-glutamyl transpeptidase activity under gas; format: biochemical; conditions: minus = inhibition
Sequence (P19440 1-380 limits assumed): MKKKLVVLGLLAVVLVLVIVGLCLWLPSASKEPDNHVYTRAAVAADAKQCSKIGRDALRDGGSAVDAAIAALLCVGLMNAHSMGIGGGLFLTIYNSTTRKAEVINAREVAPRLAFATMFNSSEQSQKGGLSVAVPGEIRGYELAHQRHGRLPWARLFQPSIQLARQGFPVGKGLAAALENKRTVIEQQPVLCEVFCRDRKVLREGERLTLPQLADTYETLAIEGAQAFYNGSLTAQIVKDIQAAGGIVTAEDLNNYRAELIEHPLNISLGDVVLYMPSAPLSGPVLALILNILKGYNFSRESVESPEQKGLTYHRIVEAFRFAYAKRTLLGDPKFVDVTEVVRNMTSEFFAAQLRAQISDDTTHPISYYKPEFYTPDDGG
I'd be grateful if you could share measured effect for these entries.
Could you give me the number in %? Just the number is fine.

So, `[Kr]` ? Its effect was -8

So, `[Ne]` ? Its effect was -3

So, `[Ar]` ? Its effect was -5

So, `[Xe]` ? Its effect was -7

----------
test system: β-D-Glucosidase; assay: High pressure experiments, β-D-glucosidase; type: biochemical, Almonds; details: before pressurization (value before the > sign)
Property measured: degree of enhancement observed

So, `[Ne]` ? Its degree of enhancement observed was +1.0

So, `[Kr]` ? Its degree of enhancement observed was +2.0

So, `[Xe]` ? Its degree of enhancement observed was +3.1

So, N#N [N2, nitrogen, reference compound] ? Its degree of enhancement observed was 0

So, `[Ar]` ? Its degree of enhancement observed was +1.0

----------
system: Aspartate aminotransferase; assay: Aspartate aminotransferase activity under gas; assay type: biochemical; conditions: minus = inhibition
Property measured: effect (%)
Could you give me the number in %? Just the number is fine.

So, [Ar] [Ar, argon] ? Its effect was -17

So, [Ne] [Ne, neon] ? Its effect was -12

So, [Xe] [Xe, xenon] ? Its effect was -17

So, [Kr] [Kr, krypton] ? Its effect was -82

----------
system: Acetyl S-CoA synthetase; assay: Acetyl S-CoA synthetase activity under gas (coupled sequence or isolated reaction); type: biochemical; settings: isolated reaction; depending upon temperature
I'd be grateful if you could share measured Maximum observed enhancement for these entries.

So, `[Kr]` ? Its Maximum observed enhancement was +5.0%

So, N#N [N2, nitrogen, reference compound] ? Its Maximum observed enhancement was +35.7%

So, `[Ar]` ? Its Maximum observed enhancement was +75.4%

So, `[Xe]` ? Its Maximum observed enhancement was +15.4%

----------
Tested on: phenylalanine ammonia lyase
Experiment: Phenylalanine ammonia lyase activity under gas
Type: biochemical
Conditions: suboptimal enzyme concen.; second value column, head not printed
Description: Solution preparation: Optimized w/v solutions are prepared by diluting the enzyme (units/ml) and the substrate (μg/ml) in appropriate buffer (optimized pH and molarity for enzymes). The solutions are used for gas experiments at once to avoid loss of activity. […] Preparation of samples: Cuvets are filled with 2 ml of substrate solution by means of a gas-tight syringe. […] The amount of gas used has been measured sufficient to saturate the solution required. […]
Property measured: effect on phenylalanine ammonia lyase

So, `[Kr]` ? Its effect on phenylalanine ammonia lyase was +18

So, `[Ar]` ? Its effect on phenylalanine ammonia lyase was +1

So, `[Xe]` ? Its effect on phenylalanine ammonia lyase was +8
